- ASSAYED_TARGET: CB1 receptor (Mus musculus, UniProt P47746)
- Sequence (P47746 whole entry): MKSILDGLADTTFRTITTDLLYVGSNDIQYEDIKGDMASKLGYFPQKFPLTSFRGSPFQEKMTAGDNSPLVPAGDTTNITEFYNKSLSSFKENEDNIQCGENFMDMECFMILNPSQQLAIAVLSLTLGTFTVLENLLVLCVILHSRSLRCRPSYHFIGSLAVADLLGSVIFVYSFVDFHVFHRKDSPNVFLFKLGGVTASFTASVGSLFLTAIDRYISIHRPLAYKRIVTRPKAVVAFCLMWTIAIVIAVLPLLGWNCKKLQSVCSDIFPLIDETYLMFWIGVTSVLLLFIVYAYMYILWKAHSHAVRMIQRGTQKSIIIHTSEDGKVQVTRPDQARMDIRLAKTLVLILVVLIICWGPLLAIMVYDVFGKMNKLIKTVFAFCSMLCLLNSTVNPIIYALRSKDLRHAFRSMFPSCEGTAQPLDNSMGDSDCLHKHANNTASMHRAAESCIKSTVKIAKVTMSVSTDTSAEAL
- ASSAY_COMMENT: [35S]GTP-γ-S binding assay in mouse cerebellar membranes, CP55,940-stimulated
- ASSAY_CONDITIONS: CP55,940 (100 nM) stimulation, mean (95% confidence interval)
Entries and their measured pIC50 follow.
Scale note: pIC50 = -log10(concentration in M).

Worked set:
| MOLECULE | OBSERVED_RESULT |
| --- | --- |
| COc1cc(-c2cccc(NC(=O)Nc3ccc(Cl)cc3)c2)ccn1 [Compound 17] | 5.88 |
| O=C(Nc1ccc(Cl)cc1)Nc1cccc(-c2ccccn2)c1 [Compound 18] | 5.58 |
| O=C(Nc1ccc(Cl)cc1)Nc1cccc(-c2ncc[nH]2)c1 [Compound 72] | 6.46 |
| O=C(Nc1ccc(Cl)cc1)Nc1cccc(-c2ccoc2)c1 [Compound 46] | 6.36 |
| O=C(Nc1ccc(Cl)cc1)Nc1cccc(-c2cccc([N+](=O)[O-])c2)c1 [Compound 29] | 6.34 |
| Cc1cccc(-c2cccc(NC(=O)Nc3ccc(Cl)cc3)c2)c1 [Compound 27] | 6.34 |
| O=C(Nc1ccc(Cl)cc1)Nc1cccc(-c2ccc3occc3c2)c1 [Compound 41] | 6.58 |

// below: pIC50 requested for another molecule
Lab note: CB1 receptor (Mus musculus, UniProt P47746) assay, enter pIC50 for O=C(Nc1ccc(Cl)cc1)Nc1cccc(-c2cncs2)c1 [Compound 51] here 6.48
